// Ki lookup, one value per entry
Experimental system: human EP4 receptor (Homo sapiens, UniProt P35408)
Construct: expressed in transfected cells
Sequence (P35408 whole entry): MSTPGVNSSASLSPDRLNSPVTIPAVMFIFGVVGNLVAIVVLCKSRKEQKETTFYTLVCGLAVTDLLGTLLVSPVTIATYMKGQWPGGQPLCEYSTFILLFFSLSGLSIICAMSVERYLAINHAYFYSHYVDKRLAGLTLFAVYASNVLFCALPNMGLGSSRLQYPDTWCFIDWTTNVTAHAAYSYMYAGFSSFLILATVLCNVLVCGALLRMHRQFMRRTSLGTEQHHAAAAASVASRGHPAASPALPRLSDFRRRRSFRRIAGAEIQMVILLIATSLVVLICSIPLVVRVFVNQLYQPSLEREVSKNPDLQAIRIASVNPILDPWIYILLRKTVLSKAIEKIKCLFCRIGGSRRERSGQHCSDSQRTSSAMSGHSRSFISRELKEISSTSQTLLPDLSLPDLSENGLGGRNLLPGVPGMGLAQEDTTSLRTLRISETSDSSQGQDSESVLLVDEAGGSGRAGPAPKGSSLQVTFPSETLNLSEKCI
Method notes: Binding ability to human EP4 receptor ([3H]PGE2 displacement)
Setup conditions: read-out: pKi EP4 (converted)

Compound | Ki
Cc1noc(C)c1S(=O)(=O)NC(=O)c1cc(CNc2ccc(-c3ccc(OC(F)F)cc3)cc2)c(C)o1 | < 10 nM
COc1ccc(-c2ccc(OCCc3cc(C(=O)O)oc3C)cc2)cc1 | < 3160 nM
Cc1oc(C(=O)NS(=O)(=O)c2ccccc2)cc1CNc1ccc(-c2ccc(OC(F)F)cc2)cc1 | < 10 nM
COc1ccc(-c2ccc(NC(=O)c3cc(C(=O)NS(=O)(=O)c4ccccc4)oc3C)cc2)cc1 | < 316 nM
Cc1oc(CCC(=O)NS(=O)(=O)c2ccccc2)cc1COc1ccc(-c2ccccc2)cc1 | < 1000 nM
O=C(O)c1cc(COc2ccc3c(c2)oc2ccccc23)co1 | < 3160 nM
Cc1oc(C(=O)O)cc1CCOc1ccc2c(c1)oc1ccccc12 | < 3160 nM
Cc1oc(C(=O)O)cc1COc1ccc(-c2ccccc2OC(F)(F)F)cc1 | < 10000 nM
Cc1ccccc1S(=O)(=O)NC(=O)c1cc(CN(C)c2ccc(-c3ccc(OC(F)F)cc3)cc2)c(C)o1 | < 31.6 nM
Cc1ccccc1S(=O)(=O)NC(=O)c1cc(CS(=O)(=O)c2ccc(-c3ccc(OC(F)F)cc3)cc2)c(C)o1 [Compound 156a] | < 10000 nM
Cc1oc(C(=O)O)cc1COc1ccc(-c2cccc(O)c2)cc1 | < 3160 nM
COc1ccc(-c2ccc(OCc3cc(S(=O)(=O)NC(=O)c4c(C)noc4C)oc3C)cc2)cc1 | < 100 nM
N#Cc1ccc(-c2ccc(OCc3coc(C(=O)O)c3)cc2)cc1 | < 3160 nM
O=C(O)c1cc(COc2ccc3c(c2)oc2ccccc23)c(C(F)(F)F)o1 | < 3160 nM
Cc1oc(S(=O)(=O)NC(=O)c2ccncc2)cc1COc1ccc(-c2ccccc2)cc1 | < 1000 nM
Cc1oc(C(=O)NS(=O)(=O)c2ccccc2)cc1CSc1ccc(-c2ccc(OC(F)F)cc2)cc1 | < 1000 nM
COc1ccc(-c2ccc(OCc3cc(/C=C/C(=O)O)oc3C)cc2)cc1 | < 100 nM
Cc1oc(C(=O)O)cc1CN(C)c1ccc(-c2ccc(OC(F)F)cc2)cc1 | < 316 nM
CC(C)c1oc(C(=O)O)cc1COc1ccc2c(c1)oc1ccccc12 | < 3160 nM
Cc1oc(C(=O)O)cc1COc1cccc(-c2cccc(C(F)(F)F)c2)c1 | < 3160 nM
COc1ccc(-c2ccc(OCc3cc(C(=O)NS(=O)(=O)c4ccccc4)oc3C)cc2)[n+]([O-])c1 | < 10000 nM
Cc1oc(C(=O)O)cc1COc1ccc(-c2ncccn2)cc1 | < 10000 nM
Cc1oc(C(=O)O)cc1CNc1ccc(-c2ccccc2)cc1 | < 3160 nM
Cc1oc(C(=O)O)cc1COc1ccc(-c2ccc(F)cc2)cc1 | < 1000 nM
O=C(O)c1cc(COc2ccc3oc4ccccc4c3c2)co1 | < 10000 nM
N#Cc1ccc(-c2ccc(OCc3cc(C(=O)O)oc3C(F)(F)F)cc2)cc1 | < 3160 nM
Cc1oc(C(=O)O)cc1CNc1ccc(-c2ccc(OC(F)F)cc2)cc1 | < 316 nM
O=C(O)c1cc(COc2cccc(-c3ccccc3)c2)c(C(F)(F)F)o1 | < 3160 nM
COc1ccc(-c2ccc(OCc3cc(C(=O)O)oc3C(F)(F)F)cc2)cc1 | < 316 nM
COc1ccc(-c2cccc(OCc3cc(C(=O)O)oc3C)c2)cc1OC | < 3160 nM
Cc1oc(S(=O)(=O)NC(=O)Cc2ccccc2)cc1COc1ccc(-c2ccccc2)cc1 | < 100 nM
CCOc1ccc(-c2ccc(OCc3cc(C(=O)O)oc3C)cc2)cc1 | < 316 nM
CCCC(=O)NS(=O)(=O)c1cc(COc2ccc(-c3ccccc3)cc2)c(C)o1 | < 1000 nM
Cc1ccccc1S(=O)(=O)NC(=O)c1cc(COc2ccc(-c3ccccc3)cc2)c(C)o1 | < 10 nM

----------
Experimental system: human EP4 receptor (Homo sapiens, UniProt P35408)
Construct: expressed in transfected cells
Method notes: Binding ability to human EP4 receptor ([3H]PGE2 displacement)
Setup conditions: read-out: pKi EP4 (converted)
Each item that follows carries a reported Ki.
Metric name: Ki

Compound | Metric name | Measured result
Cc1ccccc1S(=O)(=O)NC(=O)c1cc(CSc2ccc(-c3ccc(OC(F)F)cc3)cc2)c(C)o1 [Compound 154] | Ki | < 0.0316 µM
COc1ccc(-c2ccc(OCc3cc(S(=O)(=O)NC(=O)c4ccccc4)oc3C)cc2)cc1 [Compound 49] | Ki | < 0.01 µM
Cc1oc(C(=O)O)cc1COc1ccc(-c2ccccc2Cl)cc1 [Compound 99] | Ki | < 1 µM
Cc1noc(C)c1C(=O)NS(=O)(=O)c1cc(COc2ccc(-c3ccccc3)cc2)c(C)o1 [Compound 63] | Ki | < 0.316 µM
Cc1oc(C(=O)O)cc1COc1ccc2c(c1)oc1ccccc12 [Compound 50] | Ki | < 3.16 µM
COc1ccc(-c2ccc(OCc3cc(C(=O)NS(=O)(=O)c4c(C)noc4C)oc3C)cc2)c(OC)c1 [Compound 142] | Ki | < 0.1 µM
COc1ccc(-c2ccc(OCc3cc(C(=O)O)oc3C)cc2)c(C)c1 [Compound 144] | Ki | < 1 µM
Cc1oc(/C=C/C(=O)O)cc1COc1ccc(-c2ccccc2)cc1 [Compound 42] | Ki | < 0.1 µM
Cc1oc(S(=O)(=O)NC(=O)c2ccccc2)cc1COc1ccc(-c2ccccc2)cc1 [Compound 46] | Ki | < 0.1 µM
CC(=O)c1cccc(-c2ccc(OCc3cc(C(=O)O)oc3C)cc2)c1 [Compound 117] | Ki | < 3.16 µM
Cc1oc(C(=O)O)cc1COc1ccc(-c2ccc(N(C)C)cc2)cc1 [Compound 113] | Ki | < 10 µM
COc1ccc(-c2ccc(OCc3cc(CCC(=O)NS(=O)(=O)c4ccccc4)oc3C)cc2)cc1 [Compound 40] | Ki | < 0.1 µM
COc1ccc(-c2ccc(OCc3cc(C(=O)NS(=O)(=O)c4ccccc4)oc3C)cc2)c(OC)c1 [Compound 141] | Ki | < 0.316 µM
Cc1oc(C(=O)O)cc1COc1ccc(-c2cccc(F)c2)cc1 [Compound 104] | Ki | < 1 µM
Cc1oc(C(=O)NS(=O)(=O)c2ccccc2)cc1COc1ccc(-c2ncccn2)cc1 [Compound 138] | Ki | < 3.16 µM
Cc1oc(C(=O)O)cc1COc1ccc(-c2c(F)cccc2F)cc1 [Compound 100] | Ki | < 3.16 µM
COc1ccc(-c2ccc(OCc3coc(C(=O)O)c3)cc2)cc1 [Compound 80] | Ki | < 0.316 µM

----------
Experimental system: human EP2 receptor (Homo sapiens)
Construct: expressed in transfected cells
Sequence (P43116 whole entry): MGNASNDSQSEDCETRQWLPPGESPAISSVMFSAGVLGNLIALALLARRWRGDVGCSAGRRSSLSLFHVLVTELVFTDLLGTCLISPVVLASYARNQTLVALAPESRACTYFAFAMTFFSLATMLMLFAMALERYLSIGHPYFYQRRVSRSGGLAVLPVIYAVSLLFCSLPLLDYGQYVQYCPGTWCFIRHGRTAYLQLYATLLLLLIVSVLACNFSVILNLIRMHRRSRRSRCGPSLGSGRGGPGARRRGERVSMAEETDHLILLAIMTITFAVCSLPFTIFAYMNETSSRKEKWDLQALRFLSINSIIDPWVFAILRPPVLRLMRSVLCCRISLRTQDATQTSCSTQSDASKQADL
Method notes: Binding ability to human EP2 receptor ([3H]PGE2 displacement)
Setup conditions: read-out: pKi EP2 (converted)

Compound | Ki
Cc1oc(C(=O)O)cc1COc1ccc(-c2ccc3c(c2)OCO3)cc1 | > 10 µM
Cc1oc(C(=O)NS(=O)(=O)c2ccccc2)cc1COc1ccc(-c2ccc(OC(F)F)cc2)cc1 | > 3.16 µM
COc1ccc(-c2ccc(OCc3cc(S(=O)(=O)NC(=O)c4ccccc4)oc3C)cc2)cc1 | > 10 µM
O=C(O)c1cc(COc2ccc3c(c2)oc2ccccc23)c(C(F)(F)F)o1 | > 3.16 µM
COc1ccc(-c2ccc(OCc3cc(C(=O)NS(=O)(=O)c4ccccc4)oc3C)cc2)nc1 | > 10 µM
Cc1ccccc1S(=O)(=O)NC(=O)c1cc(CN(C)c2ccc(-c3ccc(OC(F)F)cc3)cc2)c(C)o1 | > 10 µM
Cc1oc(C(=O)O)cc1COc1ccc(-c2ccccc2C(F)(F)F)cc1 | > 3.16 µM
COc1ccc(-c2ccc(OCc3cc(C(=O)NS(=O)(=O)c4ccc(C)cn4)oc3C)cc2)cc1 | > 10 µM

----------
Experimental system: human EP2 receptor (Homo sapiens)
Construct: expressed in transfected cells
Method notes: Binding ability to human EP2 receptor ([3H]PGE2 displacement)
Setup conditions: read-out: pKi EP2 (converted)
Metric name: Ki

Compound | Experimental system | Metric name | Measured result
Cc1oc(C(=O)O)cc1COc1ccc(-c2cccc(O)c2)cc1 [Compound 112] | human EP2 receptor (Homo sapiens) | Ki | > 10 µM
COc1ccc(-c2ccc(OCc3cc(C(=O)NS(=O)(=O)c4cccs4)oc3C)cc2)cc1 [Compound 10] | human EP2 receptor (Homo sapiens) | Ki | > 3.16 µM
CC(C)c1oc(C(=O)O)cc1COc1ccc(-c2ccccc2)cc1 [Compound 85] | human EP2 receptor (Homo sapiens) | Ki | > 10 µM
COc1ccc(-c2ccc(OCc3cc(C(=O)O)oc3C)cc2)cc1OC [Compound 96] | human EP2 receptor (Homo sapiens) | Ki | > 10 µM
